System Tested: T1, TFAM (no MTS) (Homo sapiens, UniProt Q00059 43-246)
T1 sequence: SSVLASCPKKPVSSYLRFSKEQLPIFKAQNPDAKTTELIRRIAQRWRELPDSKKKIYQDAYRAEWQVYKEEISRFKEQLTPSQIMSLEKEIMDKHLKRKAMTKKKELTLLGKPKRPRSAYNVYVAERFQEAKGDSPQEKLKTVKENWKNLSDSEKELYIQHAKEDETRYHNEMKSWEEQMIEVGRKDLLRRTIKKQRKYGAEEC
Assay Name: fluorescence anisotropy; +UVC; Hill n 2.19±0.06; FP: 25 mM HEPES, 10 mM Mg(OAc)2, 25 mM NaOAc, 75 mM KOAc, pH 7.5, 1 nM DNA, TFAM 0-15 nM diluted on ice (read temperature not stated); AFM oligos: on ice, 2 min
Recorded Conditions: protein: recombinant; label: 5' 6-FAM on strand 1; blunt
Property Name: Kd (nM)
Answers are plain numbers, in nM.

So, ND3_92 +UVC (dsDNA, UVC 1500 J/m2 photolesions (positions undefined)) DNA 1: TTAGTAGCTATTACCTTCTTATTATTTGATCTA DNA 2: TAGATCAAATAATAAGAAGGTAATAGCTACTAA ? Its Kd was 5.54
